Biological target: CYP2C8 (Homo sapiens, UniProt P10632)
Sequence (P10632 1-490): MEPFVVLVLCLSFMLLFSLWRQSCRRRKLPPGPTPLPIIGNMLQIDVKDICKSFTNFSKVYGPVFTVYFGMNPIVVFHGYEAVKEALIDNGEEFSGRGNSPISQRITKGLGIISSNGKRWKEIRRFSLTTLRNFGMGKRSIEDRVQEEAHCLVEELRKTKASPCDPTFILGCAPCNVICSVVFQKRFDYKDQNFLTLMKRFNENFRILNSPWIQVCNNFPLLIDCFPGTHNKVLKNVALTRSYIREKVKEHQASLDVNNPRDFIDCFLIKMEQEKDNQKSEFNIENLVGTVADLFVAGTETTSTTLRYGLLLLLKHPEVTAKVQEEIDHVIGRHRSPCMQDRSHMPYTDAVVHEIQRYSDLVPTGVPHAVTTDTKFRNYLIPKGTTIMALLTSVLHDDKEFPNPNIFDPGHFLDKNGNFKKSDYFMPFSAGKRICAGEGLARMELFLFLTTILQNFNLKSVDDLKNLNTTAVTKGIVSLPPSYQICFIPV
Assay: in vitro
Details: % Inhibition (set 1)
measurement-label: inhibition at 11.11 μM
In your response, put the unit directly after the numeric value.

In the examples that follow, each entry is paired with its recorded inhibition at 11.11 μM.
CC(C)(CCCCCCCCCCC(C)(C)CC(=O)O)CC(=O)O [M16ββ] : 15%
CC(C)(CCCCCCCCCCCCC(C)(C)C(=O)O)C(=O)O [M16αα] : 13%

# input for lookup
Fill in inhibition at 11.11 μM for record O=c1c(O)c(-c2ccc(O)c(O)c2)oc2cc(O)cc(O)c12 [Quercetin, reference compound] 100%

---

Biological target: CYP3A4 (Homo sapiens, UniProt P08684)
Sequence (P08684 whole entry): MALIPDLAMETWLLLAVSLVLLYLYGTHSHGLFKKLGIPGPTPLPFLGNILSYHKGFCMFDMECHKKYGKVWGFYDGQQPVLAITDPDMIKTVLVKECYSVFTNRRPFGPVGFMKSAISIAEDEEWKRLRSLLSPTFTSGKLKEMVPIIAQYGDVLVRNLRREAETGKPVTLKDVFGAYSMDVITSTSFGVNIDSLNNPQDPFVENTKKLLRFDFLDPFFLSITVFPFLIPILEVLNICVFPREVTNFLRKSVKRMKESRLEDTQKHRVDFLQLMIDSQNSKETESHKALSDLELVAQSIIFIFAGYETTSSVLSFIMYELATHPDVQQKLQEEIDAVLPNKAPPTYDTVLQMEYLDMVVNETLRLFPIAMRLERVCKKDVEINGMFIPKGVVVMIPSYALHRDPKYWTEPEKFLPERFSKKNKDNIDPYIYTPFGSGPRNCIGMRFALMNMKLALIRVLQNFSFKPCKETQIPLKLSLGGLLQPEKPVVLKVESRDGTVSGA
Assay: in vitro
Details: % Inhibition (set 1)
measurement-label: inhibition at 0.41 μM (%)
Report the figure in % without appending any unit label.

Give inhibition at 0.41 μM; test system CYP3A4 (Homo sapiens, UniProt P08684); molecule CC(C)(CCCCCCCCCCCCC(C)(C)C(=O)O)C(=O)O 3

// output inhibition at 0.41 μM; input CC(C)(CCCCCCCCCCC(C)(C)CC(=O)O)CC(=O)O ; system CYP3A4 (Homo sapiens, UniProt P08684) 0

---

Biological target: CYP2C8 (Homo sapiens)
Test: in vitro
Conditions: % Inhibition (set 2)
measurement-label: inhibition at 0.41 μM (%)
Response body: numeric value in %, unit text excluded.

CC(C)(CCCCCCCCCCCCC(C)(C)C(=O)O)C(=O)O : 0
O=c1c(O)c(-c2ccc(O)c(O)c2)oc2cc(O)cc(O)c12 [Quercetin, reference compound] : 9

Give inhibition at 0.41 μM for CC(C)(CCCCCCCCCCC(C)(C)CC(=O)O)CC(=O)O 0

---

Here, each record is paired with measured inhibition at 11.11 μM data.
Target: CYP2C8 (Homo sapiens)
Test: in vitro
Conditions: % Inhibition (set 2)
Please respond with the number in % and leave the unit unwritten.

# return recorded inhibition at 11.11 μM for input CC(C)(CCCCCCCCCCC(C)(C)CC(=O)O)CC(=O)O 9

Supply recorded inhibition at 11.11 μM for O=c1c(O)c(-c2ccc(O)c(O)c2)oc2cc(O)cc(O)c12 [Quercetin, reference compound] here. 98

Name the recorded inhibition at 11.11 μM of the item CC(C)(CCCCCCCCCCCCC(C)(C)C(=O)O)C(=O)O in your answer. 0
